Biological target: human M2 receptor (Homo sapiens, UniProt P08172)
Construct: expressed in transfected cells; host or cells: CHO-DUKX (CHO-DUKX-M2-GIRK)
Sequence (P08172 1-466): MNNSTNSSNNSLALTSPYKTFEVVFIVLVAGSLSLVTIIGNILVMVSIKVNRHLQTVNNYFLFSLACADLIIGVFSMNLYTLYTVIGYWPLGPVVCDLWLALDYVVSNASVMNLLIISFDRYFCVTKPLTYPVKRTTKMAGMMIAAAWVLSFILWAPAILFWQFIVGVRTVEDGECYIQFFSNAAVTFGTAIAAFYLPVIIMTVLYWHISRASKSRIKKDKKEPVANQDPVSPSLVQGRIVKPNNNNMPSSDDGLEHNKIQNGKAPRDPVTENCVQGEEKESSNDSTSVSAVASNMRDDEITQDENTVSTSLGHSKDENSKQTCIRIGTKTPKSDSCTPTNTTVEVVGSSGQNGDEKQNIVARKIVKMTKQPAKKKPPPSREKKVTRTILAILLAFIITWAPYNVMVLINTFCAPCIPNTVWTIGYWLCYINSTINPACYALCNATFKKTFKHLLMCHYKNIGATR
Assay: Functional M2-GIRK1/4 activation test: positive cooperativity (α factor), shift of acetylcholine dose-response curve
Format: cell-based
Conditions: Allosteric EC50 shift of acetylcholine 8-point dose-response curve; CHO-DUKX-M2-GIRK cells; α>1 = positive cooperativity
measuredMetric: Cooperativity (alpha factor)
I only need the number, thanks.

// below: answered molecules
CCC(NC(=O)c1cn(-c2c(F)cc(F)cc2F)c2nc(N3CC(CO)(CO)C3)c(F)cc2c1=O)C(F)(F)C(F)(F)F (racemic) [Example 172]: 35
CC(C)(C)NC(=O)c1cn(-c2c(F)cc(F)cc2F)c2nc(N3C[C@@H](O)[C@H](O)C3)c(F)cc2c1=O: 30

Let us move to another entry and its Cooperativity (alpha factor).
Need Cooperativity (alpha factor), item CC(NC(=O)c1cn(-c2ncc(F)cc2F)c2nc(N3CC(O)C(O)C3)c(F)cc2c1=O)C(F)(F)C(F)(F)F (single isomer, unassigned)
62
